Just for reference, patent US6699896B1 is where these values come from.

Give % Change from Control for every item shown.
tested on: rat hepatic microsomal PTPases; conditions: PTPase activity, compound at 50 μM, rat liver microsomes
Give your result in % as a bare value.

Consider `Cc1oc(-c2ccc(C(F)(F)F)cc2)nc1-c1ccc(-c2cc(Br)c(O)c(Br)c2)cc1` . Its measured % Change from Control is −20

Consider Cc1oc(-c2ccc(C(F)(F)F)cc2)nc1-c1ccc(-c2ccc(OC(Cc3ccccc3)C(=O)O)cc2)cc1 (stereo not drawn) . Its measured % Change from Control is −74

Consider Cc1oc(-c2ccc(C(F)(F)F)cc2)nc1-c1ccc(-c2cc(Br)c(OC(Cc3ccccc3)C(=O)O)c(Br)c2)cc1 (stereo not drawn) . Its measured % Change from Control is −68

Consider `Cc1oc(-c2ccc(C(F)(F)F)cc2)nc1-c1ccc2c(Br)c(OCC(=O)O)ccc2c1` . Its measured % Change from Control is −20

Consider `Cc1oc(-c2ccc(C(F)(F)F)cc2)nc1-c1ccc(-c2cc(Br)c(OCC(=O)O)c(Br)c2)cc1` . Its measured % Change from Control is −35

Consider `Cc1oc(-c2ccc(C(F)(F)F)cc2)nc1-c1cccc(-c2ccc(O)cc2)c1` . Its measured % Change from Control is −28

Consider Cc1oc(-c2ccc(C(F)(F)F)cc2)nc1-c1ccc2c(Br)c(OC(Cc3ccccc3)C(=O)O)ccc2c1 (stereo not drawn) . Its measured % Change from Control is −54

Consider Cc1oc(-c2ccc(C(F)(F)F)cc2)nc1-c1cccc(-c2ccc(OC(Cc3ccccc3)C(=O)O)cc2)c1 (stereo not drawn) . Its measured % Change from Control is −78

Consider `Cc1oc(-c2ccc(C(F)(F)F)cc2)nc1-c1ccc(-c2ccc(OCc3nnn[nH]3)cc2)cc1` . Its measured % Change from Control is −47

###

measurement_type: melting point

Consider `COc1ccc(-c2ccc(-c3nc(-c4ccc(C(F)(F)F)cc4)oc3C)cc2)cc1` . Its measured melting point is 167 to 168 °C

Consider `Cc1oc(-c2ccc(C(F)(F)F)cc2)nc1-c1ccc(-c2cccc(Cn3oc(=O)[nH]c3=O)c2)cc1` . Its measured melting point is 216 to 218 °C

Consider `Cc1oc(-c2ccc(C(F)(F)F)cc2)nc1-c1ccc(-c2ccc(OCc3nnn[nH]3)cc2)cc1` . Its measured melting point is 226 to 227 °C

Consider COC(=O)C(Cc1ccccc1)Oc1c(Br)cc(-c2ccc(-c3nc(-c4ccc(C(F)(F)F)cc4)oc3C)cc2)cc1Br (stereo not drawn) . Its measured melting point is 70 to 72 °C

Consider `COc1ccc(-c2cccc(-c3nc(-c4ccc(C(F)(F)F)cc4)oc3C)c2)cc1` . Its measured melting point is 93 to 94 °C

Consider `Cc1oc(-c2ccc(C(F)(F)F)cc2)nc1-c1ccc(-c2ccc(Cn3oc(=O)[nH]c3=O)cc2)cc1` . Its measured melting point is 196 to 198 °C

###

target: Human recombinant PTP1B (Homo sapiens); settings: recombinant PTP1B, malachite green phosphate detection
Sequence (P18031 whole entry): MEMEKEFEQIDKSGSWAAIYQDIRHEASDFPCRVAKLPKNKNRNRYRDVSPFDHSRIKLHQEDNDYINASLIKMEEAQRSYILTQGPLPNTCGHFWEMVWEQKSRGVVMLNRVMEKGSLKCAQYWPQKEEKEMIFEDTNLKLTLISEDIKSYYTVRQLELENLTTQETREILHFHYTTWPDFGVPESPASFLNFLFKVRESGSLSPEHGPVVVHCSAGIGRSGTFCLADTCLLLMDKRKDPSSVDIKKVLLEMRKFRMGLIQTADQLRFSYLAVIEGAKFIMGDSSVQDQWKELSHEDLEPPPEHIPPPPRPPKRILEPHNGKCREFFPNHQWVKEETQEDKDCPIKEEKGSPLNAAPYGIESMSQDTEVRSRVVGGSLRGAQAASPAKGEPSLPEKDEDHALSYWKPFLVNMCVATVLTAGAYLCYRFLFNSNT
Classify: met when IC50 is strictly less than 900 nM; not met when IC50 is not.

Inquiry: Lab note: confirm whether the reported IC50 for this compound is below 900 nM, equality not counting. compound: `Cc1oc(-c2ccc(C(F)(F)F)cc2)nc1-c1ccc(-c2ccc(OCC(=O)O)cc2)cc1`
Reply text: met

Inquiry: Lab note: confirm whether the reported IC50 for this compound is below 900 nM, equality not counting. compound: Cc1oc(-c2ccc(C(F)(F)F)cc2)nc1-c1ccc2c(Br)c(OC(Cc3ccccc3)C(=O)O)ccc2c1 (centres unmarked)
Reply text: not met

Inquiry: Lab note: confirm whether the reported IC50 for this compound is below 900 nM, equality not counting. compound: `Cc1oc(-c2ccc(C(F)(F)F)cc2)nc1-c1ccc(-c2ccc(OCc3nnn[nH]3)cc2)cc1`
Reply text: not met

Inquiry: Lab note: confirm whether the reported IC50 for this compound is below 900 nM, equality not counting. compound: Cc1oc(-c2ccc(C(F)(F)F)cc2)nc1-c1ccc(-c2ccc(OC(Cc3ccccc3)C(=O)O)cc2)cc1 (centres unmarked)
Reply text: not met

Inquiry: Lab note: confirm whether the reported IC50 for this compound is below 900 nM, equality not counting. compound: `Cc1oc(-c2ccc(C(F)(F)F)cc2)nc1-c1ccc(-c2ccc(Cn3oc(=O)[nH]c3=O)cc2)cc1`
Reply text: not met

Inquiry: Lab note: confirm whether the reported IC50 for this compound is below 900 nM, equality not counting. compound: Cc1oc(-c2ccc(C(F)(F)F)cc2)nc1-c1ccc(-c2cc(Br)c(OC(Cc3ccccc3)C(=O)O)c(Br)c2)cc1 (centres unmarked)
Reply text: met

Inquiry: Lab note: confirm whether the reported IC50 for this compound is below 900 nM, equality not counting. compound: `Cc1oc(-c2ccc(C(F)(F)F)cc2)nc1-c1ccc(-c2cc(Br)c(O)c(Br)c2)cc1`
Reply text: met

Inquiry: Lab note: confirm whether the reported IC50 for this compound is below 900 nM, equality not counting. compound: Cc1oc(-c2ccc(C(F)(F)F)cc2)nc1-c1cccc(-c2ccc(OC(Cc3ccccc3)C(=O)O)cc2)c1 (centres unmarked)
Reply text: not met
